# test_conditions: in methanol, 288.15 K
readout_kind: solubility (mole fraction)
Please give only the number in your answer, with no unit.

**Query** I'd like to know its solubility (mole fraction). The molecule in question is `CCc1cc(C(N)=S)ccn1`
**Result** 0.0074

* * *

# test_conditions: in DMF, 288.15 K
readout_kind: solubility (mole fraction)
Answer using only a numeral; do not append any unit.

**Query** Need solubility (mole fraction), item `CCc1cc(C(N)=S)ccn1`
**Result** 0.123

* * *

# test_conditions: in 2-ethoxyethanol, 308.15 K
readout_kind: solubility (mole fraction)
Hey, just send me the number, nothing else.

**Query** Need solubility (mole fraction) of `CCc1cc(C(N)=S)ccn1` , thanks.
**Result** 0.0516
